Measured values drawn from patent US11078170B2 for this set.

- Tested on: HBV viral production from HepAD38 cells
- runDescription: Activity of test compounds on viral production from HepAD38 cells (viral load by qPCR of HBV core sequence in supernatant)
- Assay type: cell-based
- assayContext: Hepatitis B virus, 120 h, 5 days incubation, HBV DNA in supernatant by qPCR, top concentration 10 μM, read-out: Viral Load EC50 Activity range
measuredQuantity: EC50

compound	experimentalSystem	result
CN1[C@H](C(=O)Nc2ccc(F)c(Cl)c2)C[C@H](c2ccc(Cl)cc2)NS1(=O)=O	HBV viral production from HepAD38 cells	< 1000 nM
CN1[C@@H](C(=O)Nc2ccc(F)c(Cl)c2)C[C@@H](c2ncc(-c3ccc(F)cn3)s2)NS1(=O)=O	HBV viral production from HepAD38 cells	> 5000 nM
COCCCN1[C@@H](C(=O)Nc2ccc(F)c(Cl)c2)C[C@@H](c2nccs2)NS1(=O)=O	HBV viral production from HepAD38 cells	> 5000 nM

Any idea what EC50 was measured for CN1C(C(=O)Nc2ccc(F)c(Cl)c2)CC(c2ccccn2)NS1(=O)=O (racemic) ? < 1000 nM
